target: β1 AR (Homo sapiens, UniProt P08588); assay: cAMP functional assay in CHO cells stably transfected with human β1 adrenoceptor (Test 1)
Sequence (P08588 whole entry): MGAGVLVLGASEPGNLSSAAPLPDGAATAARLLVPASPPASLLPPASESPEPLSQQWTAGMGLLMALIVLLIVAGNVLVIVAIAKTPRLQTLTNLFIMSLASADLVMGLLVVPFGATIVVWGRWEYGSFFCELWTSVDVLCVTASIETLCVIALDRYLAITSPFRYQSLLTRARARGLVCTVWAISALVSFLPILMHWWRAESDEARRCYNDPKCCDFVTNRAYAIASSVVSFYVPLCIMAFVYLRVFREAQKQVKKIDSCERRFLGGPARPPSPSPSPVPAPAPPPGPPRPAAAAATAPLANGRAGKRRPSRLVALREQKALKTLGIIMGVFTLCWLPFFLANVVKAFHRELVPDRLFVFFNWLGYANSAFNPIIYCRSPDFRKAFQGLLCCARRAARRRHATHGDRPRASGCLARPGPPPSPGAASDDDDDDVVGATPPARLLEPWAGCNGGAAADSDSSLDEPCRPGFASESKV
MEASURED_METRIC: pEC50
In simple prose, pEC50 is minus the logarithm base ten of a concentration in moles per litre.

Give the measured pEC50 of CCCCOc1ccc(CC(C)(C)NC[C@H](O)c2cc(O)cc3[nH]c(=O)sc23)cc1 [Compound A] . 6.25

* * *

target: Serotonin 5-HT2C (Homo sapiens, UniProt P28335); assay: Aequorin agonist assay in CHO-K1 cells expressing recombinant Serotonin 5-HT2Cne and Gα16; conditions: agonist mode, aequorin luminescence
Sequence (P28335 33-458): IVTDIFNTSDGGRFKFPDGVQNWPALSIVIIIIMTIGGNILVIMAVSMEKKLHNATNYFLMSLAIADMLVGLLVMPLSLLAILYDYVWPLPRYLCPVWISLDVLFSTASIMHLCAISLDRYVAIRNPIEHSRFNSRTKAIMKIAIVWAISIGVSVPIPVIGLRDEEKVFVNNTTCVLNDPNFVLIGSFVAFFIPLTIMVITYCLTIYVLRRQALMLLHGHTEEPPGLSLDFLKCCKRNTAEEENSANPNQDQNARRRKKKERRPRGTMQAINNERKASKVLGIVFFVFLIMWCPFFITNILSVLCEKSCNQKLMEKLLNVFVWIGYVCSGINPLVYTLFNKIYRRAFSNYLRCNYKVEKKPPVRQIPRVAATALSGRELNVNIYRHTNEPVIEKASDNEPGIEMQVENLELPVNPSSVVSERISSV
MEASURED_METRIC: EC50 (nM)
Supply the numeric figure in nM, leaving out any unit text.

Consider the compound `CCCCOc1ccc(CC(C)(C)NC[C@H](O)c2cc(O)cc3[nH]c(=O)sc23)cc1` and give its measured EC50. 280

* * *

experiment: Comparative solubility in H2O with pH adjustment by HCl or NaOH; type: physicochemical; conditions: water, pH 6.1, aqueous buffer; read-out: solubility in H2O, Conc
MEASURED_METRIC: solubility (µg/mL)
Report the figure in µg/mL without appending any unit label.

For the compound CC(=O)O.CCCCOc1ccc(CC(C)(C)NC[C@H](O)c2cc(O)cc3[nH]c(=O)sc23)cc1 [Compound A (R) acetate salt] , what solubility is on record? 1100

* * *

assay: Comparative solubility in H2O with pH adjustment by HCl or NaOH; type: physicochemical; conditions: water, pH 5.3, aqueous buffer; read-out: solubility in H2O, Conc
MEASURED_METRIC: solubility (mg/mL)
Quick note: give the figure in mg/mL, leave out the unit.

Request the reported solubility associated with CCCCOc1ccc(CC(C)(C)NC[C@H](O)c2cc(O)cc3[nH]c(=O)sc23)cc1.O=C(O)CO [Compound A glycolate salt] 6.39

* * *

Assay: Comparative solubility in H2O with pH adjustment by HCl or NaOH
Format: physicochemical
Settings: water, pH 7.8, aqueous buffer; read-out: solubility in H2O, Conc
Method: The relative solubilities of the free base form and the acetate and glycolate salt forms of Compound A were analysed and the results are show in the table below. Solutions were titrated with addition of HCl or NaOH for pH adjustment. The improved aqueous solubilities of the acetate and glycolate salt forms relative to the free base form of Compound A make the acetate and glycolate salts of Compound A more suitable for subcutaneous injection or infusion.
MEASURED_METRIC: solubility

Given the entry `CCCCOc1ccc(CC(C)(C)NC[C@H](O)c2cc(O)cc3[nH]c(=O)sc23)cc1` , report its measured solubility. < 10 µg/mL

* * *

assay: Comparative solubility in H2O with pH adjustment by HCl or NaOH; type: physicochemical; details: water, pH 7.3, aqueous buffer; read-out: solubility in H2O, Conc
MEASURED_METRIC: solubility

Recorded solubility for CCCCOc1ccc(CC(C)(C)NC[C@H](O)c2cc(O)cc3[nH]c(=O)sc23)cc1 [Compound A] , please? < 10 µg/mL

* * *

experiment: Comparative solubility in H2O with pH adjustment by HCl or NaOH; assay type: physicochemical; conditions: water, aqueous buffer; pH 7.0; read-out: solubility in H2O, Conc
MEASURED_METRIC: solubility (µg/mL)
Kindly provide the numeric value in µg/mL only, without the unit symbol.

Param item = `CCCCOc1ccc(CC(C)(C)NC[C@H](O)c2cc(O)cc3[nH]c(=O)sc23)cc1` ; retrieve measured solubility. 50
